# Assay System: ALK (baculovirus expressed human ALK kinase domain F1098-K1410) (Homo sapiens)
# Construct: human ALK kinase domain F1098-K1410; made in house
# Sequence (Q9UM73 1098-1410): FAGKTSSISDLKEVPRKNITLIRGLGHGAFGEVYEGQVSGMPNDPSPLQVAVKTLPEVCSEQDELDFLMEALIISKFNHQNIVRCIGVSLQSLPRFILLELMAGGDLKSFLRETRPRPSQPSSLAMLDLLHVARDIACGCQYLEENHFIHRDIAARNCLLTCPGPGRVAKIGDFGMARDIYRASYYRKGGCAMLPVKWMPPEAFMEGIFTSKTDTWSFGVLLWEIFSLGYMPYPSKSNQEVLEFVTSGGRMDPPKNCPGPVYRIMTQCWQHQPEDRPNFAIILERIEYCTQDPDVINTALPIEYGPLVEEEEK
# Measurement Notes: biochemical
# Details: 1 μM ATP, 4 μM poly-AEKY, 12 nM ALK, 2 hours at ambient temperature; read-out: ALK IC50
Consider the following compounds and their measured IC50 readings.
Endpoint: IC50

INSERT INTO results (compound, endpoint, observed_result) VALUES
  ('O=C(COc1ccc(OC(F)(F)F)cc1)NCc1nc(C(=O)NCCc2ccc(Br)cc2)co1', 'IC50', '500 to 2000 nM'),
  ('O=C(COc1ccc(OC(F)(F)F)cc1)NCc1nc(C(=O)NCCC(c2ccccc2)c2ccccc2)cs1', 'IC50', '500 to 2000 nM'),
  ('O=C(COc1ccc(OC(F)(F)F)cc1)NCc1nc(C(=O)NCc2ccc(Cl)c(Cl)c2)cs1', 'IC50', '50 to 500 nM'),
  ('CCOc1cccc(CCNC(=O)c2coc(CNC(=O)COc3ccc(OC(F)(F)F)cc3)n2)c1', 'IC50', '500 to 2000 nM'),
  ('O=C(COc1ccc(OC(F)(F)F)cc1)NCc1nc(C(=O)NCc2ccc(F)c(C(F)(F)F)c2)cs1', 'IC50', '50 to 500 nM'),
  ('COc1cccc(CCNC(=O)c2coc(CNC(=O)COc3ccc(OC(F)(F)F)cc3)n2)c1', 'IC50', '500 to 2000 nM'),
  ('O=C(Cc1ccc2ccccc2c1)NCc1nc(C(=O)NCCc2cccc(Cl)c2)cs1', 'IC50', '50 to 500 nM'),
  ('CC1CCCN(C(=O)c2csc(CNC(=O)COc3ccc(OC(F)(F)F)cc3)n2)C1 (stereo not shown)', 'IC50', '500 to 2000 nM'),
  ('COc1ccc(OC)c(CNC(=O)c2csc(CNC(=O)COc3ccc(OC(F)(F)F)cc3)n2)c1', 'IC50', '50 to 500 nM'),
  ('O=C(COc1ccc(OC(F)(F)F)cc1)NCc1nc(C(=O)NCc2cccc(I)c2)cs1', 'IC50', '50 to 500 nM');
